assay: cytotoxicity in ATH8 cells (method of Mitsuya and Broder); assay type: cell-based; conditions: human, HIV-2 experiment, 10 uM
RESULT_TYPE: cytotoxicity at 10 µM (%)
The reply should contain only the number, in %.

MOLECULE: Nc1nc2c(ncn2C2CC(CO)C2CO)c(=O)[nH]1 (centres unmarked)
QUANTITATIVE_READOUT: 11

Shifting focus to the molecule that follows.
Query: For the molecule shown here, Nc1ncnc2c1ncn2C1CC(CO)C1CO (centres unmarked) , give the reported cytotoxicity at 10 µM.
Result: 15

----------
assay: MTT cytotoxicity assay in MRC5 cells; assay type: cell-based; details: human, 32 ug/ml
RESULT_TYPE: viability (%)
A number alone suffices; assume %.

COMPOUND: OCC1CC(n2ccc3c(Cl)ncnc32)C1CO (stereo not drawn) [Example 67B]
QUANTITATIVE_READOUT: 68
--
COMPOUND: Nc1nc2c(ncn2C2CC(CO)C2CO)c(=O)[nH]1 (stereo not drawn)
QUANTITATIVE_READOUT: 100

Please turn your attention to the following entry.
Query: Look up viability for this compound: Nc1ncnc2c1ncn2C1CC(CO)C1CO (stereo not drawn)
Result: 67

Every entry's value here was drawn from patent US5153352A.
